Data provenance is the RNAGym collection of RNA variant scans (doi:10.1126/science.aae0568).

B1: tRNA (parent)
chain: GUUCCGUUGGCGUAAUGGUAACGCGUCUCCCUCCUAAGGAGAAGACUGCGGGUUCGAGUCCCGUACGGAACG

# Variants of: B1
# EXPERIMENT SUMMARY: yeast fitness relative to wild type (ratio to wild type); higher = fitter; tRNA-Arg(CCU), competitive growth, 37 C, YPD
Fewer inactive variants are shown than the library holds.
Use Satisfied when the recorded yeast fitness is no lower than 0.7; use Not satisfied when it is lower.

In: API: above_or_equal(metric=yeast fitness, cutoff=0.7) for item C31G A42C C55U G68A
Out: Not satisfied

In: Would you mind doing C11A U47A A70C as well?
Out: Not satisfied

In: Again, but for C5G A36U G41A A65U
Out: Not satisfied

In: Then this variant: U8A C11U
Out: Not satisfied

In: And what about the variant G56A A65U ?
Out: Satisfied

In: And the next one, G17C C34U C61U ?
Out: Not satisfied

In: Now try U3C G23C C30A G38C .
Out: Not satisfied

In: What do you get for A45C U47C U64C A65C ?
Out: Satisfied

In: // next record A21G G23A A40C G52A
Out: Not satisfied

In: Entry to check: C11G A15C C46G U59A
Out: Not satisfied

In: Proceed to A15G U35G A43G C66U
Out: Not satisfied
